Where do these numbers come from? They come from patent US20220402980A1.

# tested-system: T1, wild-type human integrin αvβ3 (octyl β-D-glucopyranoside preparation) (human, UniProt P06756 31-1048; P05106 27-788)
# T1 construct: From Immunological Sciences
# T1 sequence (P06756 31-1048, chain 1 of 2): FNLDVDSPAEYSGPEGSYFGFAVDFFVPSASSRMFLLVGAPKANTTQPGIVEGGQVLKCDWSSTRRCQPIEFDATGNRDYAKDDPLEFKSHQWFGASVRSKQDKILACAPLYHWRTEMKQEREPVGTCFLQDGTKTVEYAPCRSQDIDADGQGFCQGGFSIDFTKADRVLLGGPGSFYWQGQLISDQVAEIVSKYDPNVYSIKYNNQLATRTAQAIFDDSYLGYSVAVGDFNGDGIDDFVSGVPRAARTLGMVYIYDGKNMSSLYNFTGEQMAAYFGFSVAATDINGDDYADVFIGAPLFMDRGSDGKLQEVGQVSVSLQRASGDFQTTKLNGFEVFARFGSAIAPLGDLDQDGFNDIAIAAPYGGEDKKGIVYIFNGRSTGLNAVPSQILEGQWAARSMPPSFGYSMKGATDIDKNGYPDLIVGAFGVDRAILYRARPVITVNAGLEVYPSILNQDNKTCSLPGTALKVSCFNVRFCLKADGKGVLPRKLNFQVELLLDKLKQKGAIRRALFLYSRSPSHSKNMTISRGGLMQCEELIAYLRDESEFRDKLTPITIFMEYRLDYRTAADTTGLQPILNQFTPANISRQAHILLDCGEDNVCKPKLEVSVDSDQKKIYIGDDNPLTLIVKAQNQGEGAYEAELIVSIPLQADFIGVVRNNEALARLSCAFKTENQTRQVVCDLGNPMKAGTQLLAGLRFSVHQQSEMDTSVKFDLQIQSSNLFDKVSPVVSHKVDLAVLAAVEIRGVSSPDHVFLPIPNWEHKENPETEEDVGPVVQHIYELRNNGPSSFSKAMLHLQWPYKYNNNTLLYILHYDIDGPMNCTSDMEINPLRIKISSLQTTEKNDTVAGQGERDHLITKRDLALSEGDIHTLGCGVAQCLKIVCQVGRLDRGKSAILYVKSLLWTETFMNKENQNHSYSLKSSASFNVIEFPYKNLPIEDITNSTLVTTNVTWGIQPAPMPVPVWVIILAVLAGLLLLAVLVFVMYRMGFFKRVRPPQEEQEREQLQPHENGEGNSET
# T1 sequence (P05106 27-788, chain 2 of 2): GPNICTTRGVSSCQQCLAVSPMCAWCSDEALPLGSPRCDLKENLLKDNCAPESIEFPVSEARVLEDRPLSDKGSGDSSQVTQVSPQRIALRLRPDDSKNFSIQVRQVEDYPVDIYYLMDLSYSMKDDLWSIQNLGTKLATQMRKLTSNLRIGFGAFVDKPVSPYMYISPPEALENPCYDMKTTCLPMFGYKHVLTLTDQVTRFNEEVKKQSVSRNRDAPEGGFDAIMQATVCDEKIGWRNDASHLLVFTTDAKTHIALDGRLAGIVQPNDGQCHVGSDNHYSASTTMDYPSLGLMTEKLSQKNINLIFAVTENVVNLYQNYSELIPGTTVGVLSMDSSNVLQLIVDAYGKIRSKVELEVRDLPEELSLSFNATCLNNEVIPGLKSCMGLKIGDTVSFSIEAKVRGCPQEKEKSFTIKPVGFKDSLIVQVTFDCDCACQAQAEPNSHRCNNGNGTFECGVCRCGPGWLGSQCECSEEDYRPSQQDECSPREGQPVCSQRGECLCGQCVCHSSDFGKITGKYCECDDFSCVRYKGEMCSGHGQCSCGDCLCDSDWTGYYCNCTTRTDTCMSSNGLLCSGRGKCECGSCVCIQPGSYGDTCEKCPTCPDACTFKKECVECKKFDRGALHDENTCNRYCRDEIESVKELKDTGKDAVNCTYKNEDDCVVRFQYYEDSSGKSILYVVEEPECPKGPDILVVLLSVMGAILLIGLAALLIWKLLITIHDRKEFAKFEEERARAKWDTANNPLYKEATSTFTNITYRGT
# protocol-text: direct binding to integrin-coated microtiter plates, one site specific binding fit
*1 amine or outer side, *2 acyl side, *3 side chain or, on linkers, in order; H or OH if unused. Where no end group is shown, it is not given here. [ ]: non-standard residue; d: D form. The star is where a group is joined. Biotin = O=C1N[C@H]2[C@H](CS[C@H]2CCCCC(=O)*)N1; βAsp = O=C(O)[C@H](CC(=O)[*:2])N[*:1]
readout-type: Kd (nM)

binder="Ac-C[βAsp]GRCGVRSSSRTPSDK(Biotin)Y (also: in complex with streptavidin-peroxidase conjugate)" readout_type=Kd val=1.3
